Target: T1, recombinant human RANKL (human, UniProt O14788 136-317)
T1 sequence: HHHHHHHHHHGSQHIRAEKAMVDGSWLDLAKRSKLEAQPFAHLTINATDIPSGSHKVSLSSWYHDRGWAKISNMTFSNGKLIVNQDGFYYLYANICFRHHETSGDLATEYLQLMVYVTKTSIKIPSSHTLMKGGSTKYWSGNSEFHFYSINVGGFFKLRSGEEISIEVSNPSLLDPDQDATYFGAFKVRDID
Assay: cell-based or functional assay
test-readout: IC50 (ng/ml) in RAW264.7 cells, osteoclast differentiation induced by RANKL (ng/mL)

binder="G10 (antibody, human IgG2, kappa, V domains shown) VH: QVQLVQSGAELKKPGASVKLSCKASGYTFTTYWLQWVRQAPGQGLEWMGAIYPGPGNTKYTQKFKDRFTITADTSKSTAYMQLNSLKSEDSAVYYCARRGSRRGIAYWGQGTLVTVSA VL: NIVLTQSPASLSVSLGQRATISCRASESVDSYGRSFMHWYQQRPGQAPRLLIYLASNLESGVPARFSGSGSRTDFTLTISSVEAEDEATYYCQQDNEDPYTFGGGTKLEIKG" test_result=695
